Hello, the source for this data is PubChem BioAssay, in case you need it.

# Test Protocol: COS7 lysate on small-molecule microarray, probe aHis, 635 nm (AID 1123);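 note: z-score combines 667nm fluorescence intensity with signal-to-noise per printed compound spot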
# Measurement Parameters: COS7 cell lysate, fluorescence, higher = more signal
Classification field: enter criterion met for composite z-score values not below 1, criterion not met for values below it.

Compound	Class
C=C(C(=O)CC[C@H](OC(=O)c1ccccc1-c1ccccc1C(=O)O)c1cccc(OCCO)c1)C(C)C	criterion not met
C=CC[C@]1(C(=O)N2CCCCC2)N=C(c2ccc(OCCCO)cc2)O[C@H]1c1ccccc1CN=[N+]=[N-]	criterion met
CCCC=C(CCC)[C@@H](NS(=O)(=O)c1ccc(C(F)(F)F)cc1)c1ccccc1	criterion met
CO[C@H]1O[C@H](CO)[C@@H](OC(=O)CCc2ccccc2)[C@@H]2OC(=O)[C@@H](Cc3ccccc3)C/C=C/C[C@H](Cc3ccccc3)C(=O)O[C@@H]12	criterion not met
C=C(COC)C(=O)CC[C@@H](OC(C)=O)c1cccc(OCCO)c1	criterion not met
CC(c1ccccc1)C(O)C1C=CC2C(=O)N(C)C(=O)C2N1Nc1ccccc1 (centres undefined)	criterion met
CCCCCC1=C2CNC(C)(C(=O)OC)C=C2C(C)C1=O (centres undefined)	criterion met
CC(C)C(O)C1C=CC2C(=O)N(c3ccccc3)C(=O)C2N1Nc1ccccc1 (centres undefined)	criterion met
C=C(/C(=C/C[C@H](OC(C)=O)c1ccc(CO)o1)c1cnc2ccccc2c1)C(C)C	criterion not met
CCCCCN1CC=CC23O[C@@H]4/C=C\CCCOC(=O)C4[C@H]2C(=O)N(C(C)CO)[C@@H]3C1=O (some centres undefined)	criterion not met
CC(C)=C1C(=O)C(c2ccccc2)=C2CN3C(=O)N(CCc4ccccc4)C(=O)[C@]3(Cc3ccc(C(F)(F)F)cc3)[C@H]21	criterion met
CCCC=C(CCC)[C@@H](NS(=O)(=O)CC12CCC(CC1=O)C2(C)C)c1ccc(C(=O)OC)cc1 (some centres undefined)	criterion met
CCOC(=O)C1=CC[C@@H](c2ccccc2F)N(S(=O)(=O)c2ccc(C)cc2)[C@H]1c1ccccc1	criterion met
CN1C2C=C(CCCO)C(C3C(=O)N(C(N)=O)C(=O)C32)C1C1CC1 (centres undefined)	criterion not met
CO[C@H]1O[C@H](CO)[C@@H](OC(=O)Nc2ccc3c(c2)OCO3)[C@H](OC(=O)Nc2ccc3c(c2)OCO3)[C@@H]1OC(=O)Nc1ccc2c(c1)OCO2	criterion met
COCCOC(=O)N1C(=O)[C@@]2(c3cc(C#CCCO)ccc31)[C@H](c1ccc(OCCO)cc1)N1[C@H](c3ccccc3)[C@H](c3ccccc3)OC(=O)[C@H]1[C@@H]2C(=O)Nc1nc2ccccc2s1	criterion not met
COCCOC(=O)N1C(=O)[C@@]2(c3cc(C#CC4(O)CCCCCC4)ccc31)[C@H](C(=O)Nc1nc3ccccc3s1)[C@H]1C(=O)O[C@H](c3ccccc3)[C@H](c3ccccc3)N1[C@@H]2c1ccc(O)cc1	criterion met
CC(C)[Si]1(C(C)C)OCc2cc(C3CC3)nc(-c3ccc(Oc4ccccc4)cc3)c21	criterion not met

----------
# Test Protocol: basal CRE-LacZ reporter activity in PC12 – cell-based, unstimulated, primary screen (AID 1145)
# Measurement Parameters: no forskolin, luminescence, 4.5 h, higher = more signal, called active from +8 up or from −8 down

Molecule	z-score
COC(=O)[C@@]1(Cc2ccc(OC)cc2)[C@H]2c3cc(C(=O)N4CCCC4)n(CCc4c[nH]c5ccc(O)cc45)c3C[C@H]2CN1C(=O)c1ccccc1	0.587
CCCCC(O)C1C=CC2C(=O)N(C)C(=O)C2N1N(c1ccccc1)c1ccccc1 (stereo unspecified)	1.59
COCCOC(=O)N1C(=O)[C@@]2(c3ccccc31)[C@H](C(=O)NC[C@H](O)c1ccccc1)[C@H]1C(=O)O[C@H](c3ccccc3)[C@H](c3ccccc3)N1[C@@H]2c1ccc(O)cc1	0.155
COC(=O)c1c(CC[C@@H](CO)NC(=O)N2CCC[C@H]2Cn2cc(C3(O)CCCCC3)nn2)oc(C(C)=O)c1C(=O)OC	0.498
COc1cc2c(cc1O)C(C1CC1)N(C)CC2 (stereo unspecified)	0.479
O=C1NC(=O)C2C1C=CC(C(O)c1ccco1)N2Nc1ccc(Cl)cc1Cl (stereo unspecified)	0.0501
CCOC(=O)C1=CC[C@@H](c2ccccc2F)N(S(=O)(=O)c2ccc(C)cc2)[C@H]1c1ccccc1	0.827
CN(C)C(=O)[C@@]1(Cc2ccccc2)N=C(c2ccc(OCCCO)cc2)O[C@H]1c1ccccc1	0.195
NC(=O)[C@H]1[C@@H]2C(=O)O[C@@H](c3ccccc3)[C@@H](c3ccccc3)N2[C@@H](c2ccc(OCCO)cc2)[C@]12C(=O)Nc1ccc(C#CCCO)cc12	-0.465
COc1ccc(C#Cc2ccc3c(c2)[C@]2(C(=O)N3)[C@H](c3ccc(OCCO)cc3)N3[C@H](c4ccccc4)[C@H](c4ccccc4)OC(=O)[C@H]3[C@@H]2C(=O)NC[C@H](O)c2ccccc2)cc1	-0.491
[N-]=[N+]=Nc1ccccc1C[C@]1(C(=O)NCC(O)CO)COC(c2ccc(OCCCO)cc2)=N1 (stereo partly specified)	0.493
